Just for reference, patent US20250313535A1 is where these values come from.

Target: α4β7 integrin (Homo sapiens (Human), UniProt P13612+P26010)
Sequence (P13612 34-1032): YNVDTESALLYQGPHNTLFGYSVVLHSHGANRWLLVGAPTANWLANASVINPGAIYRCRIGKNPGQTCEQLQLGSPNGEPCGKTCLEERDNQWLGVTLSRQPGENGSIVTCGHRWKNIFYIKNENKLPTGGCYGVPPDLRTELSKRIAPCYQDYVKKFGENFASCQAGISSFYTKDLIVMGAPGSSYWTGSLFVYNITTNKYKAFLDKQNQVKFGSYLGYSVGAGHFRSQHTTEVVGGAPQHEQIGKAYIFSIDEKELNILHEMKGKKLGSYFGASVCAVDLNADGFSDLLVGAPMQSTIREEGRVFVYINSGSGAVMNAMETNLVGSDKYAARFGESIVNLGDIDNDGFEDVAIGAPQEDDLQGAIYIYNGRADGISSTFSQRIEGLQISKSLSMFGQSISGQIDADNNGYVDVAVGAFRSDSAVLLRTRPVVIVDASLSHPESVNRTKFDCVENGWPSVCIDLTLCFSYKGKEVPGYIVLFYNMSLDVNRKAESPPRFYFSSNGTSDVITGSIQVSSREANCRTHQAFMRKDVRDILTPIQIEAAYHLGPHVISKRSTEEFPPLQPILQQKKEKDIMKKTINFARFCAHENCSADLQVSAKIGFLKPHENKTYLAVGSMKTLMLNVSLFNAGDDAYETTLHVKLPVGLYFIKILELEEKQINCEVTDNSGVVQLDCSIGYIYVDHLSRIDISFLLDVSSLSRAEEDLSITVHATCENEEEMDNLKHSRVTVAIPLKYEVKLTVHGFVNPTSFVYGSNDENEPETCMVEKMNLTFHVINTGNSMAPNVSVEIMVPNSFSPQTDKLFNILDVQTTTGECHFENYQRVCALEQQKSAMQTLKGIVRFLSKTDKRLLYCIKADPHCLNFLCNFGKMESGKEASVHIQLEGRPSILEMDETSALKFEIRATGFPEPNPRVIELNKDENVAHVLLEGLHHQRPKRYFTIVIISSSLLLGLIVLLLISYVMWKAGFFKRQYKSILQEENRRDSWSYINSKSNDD
Sequence (P26010 20-798): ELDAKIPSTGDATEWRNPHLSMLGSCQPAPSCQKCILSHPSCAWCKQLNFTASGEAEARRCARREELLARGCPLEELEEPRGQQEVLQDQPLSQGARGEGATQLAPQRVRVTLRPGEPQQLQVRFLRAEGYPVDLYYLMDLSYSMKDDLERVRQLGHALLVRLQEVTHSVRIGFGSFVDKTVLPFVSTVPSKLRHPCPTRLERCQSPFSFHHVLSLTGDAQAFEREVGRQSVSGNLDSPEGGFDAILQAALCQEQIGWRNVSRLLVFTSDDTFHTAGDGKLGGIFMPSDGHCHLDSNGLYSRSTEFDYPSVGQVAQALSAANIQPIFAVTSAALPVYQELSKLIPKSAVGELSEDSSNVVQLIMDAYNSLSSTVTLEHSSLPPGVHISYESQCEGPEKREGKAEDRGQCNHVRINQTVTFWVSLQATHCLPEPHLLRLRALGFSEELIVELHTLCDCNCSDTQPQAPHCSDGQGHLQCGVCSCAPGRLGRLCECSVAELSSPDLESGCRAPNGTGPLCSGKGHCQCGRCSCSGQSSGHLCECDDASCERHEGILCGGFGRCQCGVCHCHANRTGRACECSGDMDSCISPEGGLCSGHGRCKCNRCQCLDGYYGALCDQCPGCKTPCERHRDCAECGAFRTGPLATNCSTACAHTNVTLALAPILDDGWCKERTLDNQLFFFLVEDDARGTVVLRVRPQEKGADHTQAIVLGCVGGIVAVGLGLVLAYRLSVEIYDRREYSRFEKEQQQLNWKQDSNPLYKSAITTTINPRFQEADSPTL
Experiment: Integrin Adhesion Assay: Protocol 4 (MAdCAM-coated plate, RPMI-8866 cells with stable LOF mutation of the ITGB1 gene)
Format: cell-based
Conditions: Protocol 4; RPMI-8866 cells with LOF mutation of ITGB1, MAdCAM; read-out: Mean IC50 α4β7 KO
pIC50: −log10 of the molar value.
READOUT NAME: pIC50

1. CN(C)c1ccc2c(C(F)(F)F)c(-c3cccc4c(C[C@H](NC(=O)c5c(F)cccc5F)C(=O)O)cccc34)c(=O)n(C)c2c1 :: < 6.00
2. O=C(O)[C@H](Cc1cccc2c(-c3ncc(CN4CCCC4)c4ccccc34)cccc12)NC(=O)C1(C(F)(F)F)CCN(CC(F)F)CC1 :: > 8.00
3. Cn1c(=O)c(-c2cccc3c(C[C@H](NC(=O)C4(C)C[C@H]5CN(CC(F)(F)F)C[C@H]5C4)C(=O)O)cccc23)c(C(F)(F)F)c2ccccc21 (stereo partly drawn) :: 6.00 to 7.00
4. COc1cc(CN2CCC(C)(C)CC2)cnc1-c1cccc2c(C[C@H](NC(=O)C3(C(F)(F)F)CCN(CC(F)F)CC3)C(=O)O)cccc12 :: > 8.00
5. O=C(O)[C@H](Cc1cccc2c(-c3ncc(C(=O)N4CCN(C5CC5)CC4)c4ccccc34)cccc12)NC(=O)C1(C(F)(F)F)CCN(CC(F)(F)F)CC1 :: 7.00 to 8.00
6. COc1cc2c(c(C(F)(F)F)c1-c1cccc3c(C[C@H](NC(=O)C4(C(F)(F)F)CCN(CC(F)(F)F)CC4)C(=O)O)cccc13)CN(C)CC2 :: > 8.00

###

Biological target: α4β7 integrin (Homo sapiens (Human), UniProt P13612+P26010)
Test: Integrin Adhesion Assay: Protocol 4 (MAdCAM-coated plate, RPMI-8866 cells with stable LOF mutation of the ITGB1 gene)
Assay type: cell-based
Conditions: RPMI-8866 cells with stable LOF mutation of the ITGB1 gene; read-out: Mean IC50 α4β7 KO^a
pIC50: −log10 of the molar value.
Reported pIC50 values follow for various compounds
READOUT NAME: pIC50

1) CC1(C(=O)N[C@@H](Cc2cccc3c(-c4ncc(CN5CCCCC5)c5ccccc45)cccc23)C(=O)O)CC2CCC(C1)N2CC(F)F (stereo partly drawn) :: 7.00 to 8.00
2) COc1ccc(CN(C)C)c(OC)c1-c1cccc2c(C[C@H](NC(=O)c3c(C)cccc3F)C(=O)O)cccc12 :: > 8.00
3) CC1(C(=O)N[C@@H](Cc2cccc3c(-c4ncc(CN5CCCCC5)c5ccccc45)cccc23)C(=O)O)CC2CCC(C1)N2C1COC1 (stereo partly drawn) :: 7.00 to 8.00
4) COc1ccc(CN(C)C)c(OC)c1-c1cccc2c(C[C@H](NC(=O)c3c(F)cccc3CN3CCC(F)(F)CC3)C(=O)O)cccc12 :: > 8.00
5) CCC1(C(=O)N[C@@H](Cc2cccc3c(-c4ncc(CN5CCCCC5)c5ccccc45)cccc23)C(=O)O)CCN(CC(F)(F)F)CC1 :: > 8.00
6) Cn1c(=O)c(-c2cccc3c(C[C@H](NC(=O)C4(C(F)(F)F)CCN(CC(F)F)CC4)C(=O)O)cccc23)c(C(F)(F)F)c2cc(C(F)(F)F)ccc21 :: 7.00 to 8.00
7) COc1ccc(CN2CCC(F)(F)CC2)c(OC)c1-c1cccc2c(C[C@H](NC(=O)c3c(C)cncc3F)C(=O)O)cccc12 :: > 8.00
8) Cn1c(=O)c(-c2cccc3c(C[C@H](NC(=O)[C@]4(C(F)(F)F)CC[C@@H](N5CCOC[C@@H]5C(F)(F)F)CC4)C(=O)O)cccc23)c(C(F)(F)F)c2ccccc21 :: 6.00 to 7.00
9) Cn1c(=O)c(-c2cccc3c(C[C@H](NC(=O)c4c(F)cc(N5CCOc6ccccc65)cc4F)C(=O)O)cccc23)c(C(F)(F)F)c2ccccc21 :: 6.00 to 7.00
10) COc1ccc(CN2CCC(C)CC2)c(OC)c1-c1cccc2c(C[C@H](NC(=O)c3c(C)cccc3F)C(=O)O)cccc12 :: > 8.00
11) CCOCCN1CCC(C(=O)N[C@@H](Cc2cccc3c(-c4c(C(F)(F)F)c5ccccc5n(C)c4=O)cccc23)C(=O)O)(C(F)(F)F)CC1 :: 7.00 to 8.00
12) COc1ccnc(OC)c1-c1cccc2c(C[C@H](NC(=O)c3c(C)cccc3F)C(=O)O)cccc12 :: 7.00 to 8.00
13) CC1(C(=O)N[C@@H](Cc2cccc3c(-c4ncc(CN5CCCCC5)c5ccccc45)cccc23)C(=O)O)CC2CCC(C1)N2CC(F)(F)F (stereo partly drawn) :: 7.00 to 8.00
14) O=C(O)[C@H](Cc1cccc2c(-c3cc(CN4CCC(F)(F)C4)cc4ccncc34)cccc12)NC(=O)C1(C(F)(F)F)CCN(C2COC2)CC1 :: 7.00 to 8.00
15) COc1ccc(CN2CCC(F)(F)CC2)c(OC)c1-c1cccc2c(C[C@H](NC(=O)c3c(F)ccnc3C)C(=O)O)cccc12 :: 7.00 to 8.00
16) CC(N1CCC(C(=O)N[C@@H](Cc2cccc3c(-c4c(C(F)(F)F)c5ccccc5n(C)c4=O)cccc23)C(=O)O)(C(F)(F)F)CC1)C(F)(F)F (stereo partly drawn) :: 6.00 to 7.00
17) Cn1c(=O)c(-c2cccc3c(C[C@H](NC(=O)C4(C)CC5CCC(C4)N5CC(F)(F)F)C(=O)O)cccc23)c(C(F)(F)F)c2ccccc21 (stereo partly drawn) :: 7.00 to 8.00
18) COc1ccc(CN(C)CCF)c(OC)c1-c1cccc2c(C[C@H](NC(=O)c3c(C)cccc3F)C(=O)O)cccc12 :: > 8.00
19) COc1ccc(CN2C[C@@H](C)O[C@@H](C)C2)c(OC)c1-c1cccc2c(C[C@H](NC(=O)c3c(C)cccc3F)C(=O)O)cccc12 :: > 8.00
20) Cn1c(=O)c(-c2cccc3c(C[C@H](NC(=O)c4c(F)ccc(C5CC5)c4F)C(=O)O)cccc23)c(C(F)(F)F)c2ccccc21 :: 6.00 to 7.00
21) COc1ccc(CN2CCC3(CCOC3)CC2)c(OC)c1-c1cccc2c(C[C@H](NC(=O)c3c(C)cccc3F)C(=O)O)cccc12 :: > 8.00
22) COc1ccc(CN2CCC(CF)CC2)c(OC)c1-c1cccc2c(C[C@H](NC(=O)c3c(C)cccc3F)C(=O)O)cccc12 :: > 8.00
23) Cc1cncc(C)c1-c1cc(F)c(C(=O)N[C@@H](Cc2cccc3c(-c4c(C(F)(F)F)c5ccccc5n(C)c4=O)cccc23)C(=O)O)c(F)c1 :: < 6.00
24) COc1ccc2cccnc2c1-c1cccc2c(C[C@H](NC(=O)C3(C(F)(F)F)CCN(CC(F)(F)F)CC3)C(=O)O)cccc12 :: > 8.00

###

# IC50 annotations
Molecular target: α4β7 integrin (Homo sapiens (Human), UniProt P13612+P26010)
Experiment: Integrin Adhesion Assay: Protocol 4 (MAdCAM-coated plate, RPMI-8866 cells with stable LOF mutation of the ITGB1 gene)
Type: cell-based
Details: Protocol 4; RPMI-8866 cells with LOF mutation of ITGB1, MAdCAM; read-out: Mean IC50 α4β7 KO
READOUT NAME: IC50

1. CC(C)(C)C1CCN(CCc2cnc(-c3cccc4c(C[C@H](NC(=O)C5(C(F)(F)F)CCN(CC(F)(F)F)CC5)C(=O)O)cccc34)c3ccccc23)CC1 :: < 10 nM
2. COC(=O)[C@H](Cc1cccc2c(-c3ncc(CN(C)C)c4ccccc34)cccc12)NC(=O)C1(C(F)(F)F)CCN(CC(F)F)CC1 :: < 10 nM
3. COc1cccc(CCN2CCC[C@H](F)C2)c1-c1cccc2c(C[C@H](NC(=O)c3c(C)cccc3F)C(=O)O)cccc12 :: < 10 nM

###

Target: α4β1 integrin (Homo sapiens (Human), UniProt P05556+P13612)
Sequence (P13612 34-1032): as the sequence (P13612 34-1032) above
Sequence (P05556 21-798): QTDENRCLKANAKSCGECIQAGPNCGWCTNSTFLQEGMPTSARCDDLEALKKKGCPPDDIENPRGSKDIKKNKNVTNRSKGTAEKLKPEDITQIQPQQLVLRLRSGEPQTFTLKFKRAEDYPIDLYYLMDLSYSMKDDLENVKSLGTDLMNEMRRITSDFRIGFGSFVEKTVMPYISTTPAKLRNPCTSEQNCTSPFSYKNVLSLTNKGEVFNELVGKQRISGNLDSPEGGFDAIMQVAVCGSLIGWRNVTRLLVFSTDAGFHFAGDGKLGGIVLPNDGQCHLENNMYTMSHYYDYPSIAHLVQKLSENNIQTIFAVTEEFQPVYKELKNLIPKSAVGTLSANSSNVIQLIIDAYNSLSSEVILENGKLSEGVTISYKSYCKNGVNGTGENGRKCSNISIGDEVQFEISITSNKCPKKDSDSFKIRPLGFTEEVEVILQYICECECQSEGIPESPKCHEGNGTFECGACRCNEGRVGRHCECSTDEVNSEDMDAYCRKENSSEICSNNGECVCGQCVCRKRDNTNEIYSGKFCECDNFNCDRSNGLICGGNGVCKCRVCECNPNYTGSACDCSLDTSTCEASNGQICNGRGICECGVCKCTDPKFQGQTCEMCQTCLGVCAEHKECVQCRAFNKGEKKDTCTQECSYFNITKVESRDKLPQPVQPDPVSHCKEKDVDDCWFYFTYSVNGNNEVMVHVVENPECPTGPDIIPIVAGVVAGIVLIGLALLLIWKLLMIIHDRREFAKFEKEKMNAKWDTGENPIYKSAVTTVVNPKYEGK
Test: Integrin Adhesion Assay: Protocol 2 (VCAM-coated plate, Jurkat cells, CellTiter GLO readout)
Type: cell-based
Settings: determined by at least one of the assays described (protocol not specified)
READOUT NAME: IC50

1. CCOCc1cc(OC)c(-c2nccc3c(C[C@H](NC(=O)c4c(F)cccc4F)C(=O)O)cccc23)c(OC)c1 [Compound 260] :: 0.1 to 1 µM
2. C[C@H]1COCCN1c1cc(F)c(C(=O)N[C@@H](Cc2cccc3c(-c4c(C(F)(F)F)ccn(C)c4=O)nccc23)C(=O)O)c(F)c1 [Compound 216] :: > 1 µM
3. Cn1ccc(C(F)(F)F)c(-c2cccc3c(C[C@H](NC(=O)c4c(F)cc(N5CCOC[C@@H]5C(F)(F)F)cc4F)C(=O)O)cccc23)c1=O [Compound 142] :: > 1 µM
4. CCc1ccc(F)c(C(=O)N[C@@H](Cc2cccc3c(-n4c(=O)ccn(C)c4=O)cccc23)C(=O)O)c1F [Compound 139] :: 0.1 to 1 µM
5. Cc1ccccc1-c1cccc(C(F)(F)C(=O)N[C@@H](Cc2cccc3c(-n4c(=O)ccn(C)c4=O)cccc23)C(=O)O)c1 [Compound 179] :: > 1 µM
6. Cn1ccc(=O)n(-c2cccc3c(C[C@H](NC(=O)c4c(F)cc(N5CCOC[C@@H]5C(F)(F)F)cc4F)C(=O)O)cccc23)c1=O [Compound 108] :: 0.1 to 1 µM
7. Cn1ccc(=O)n(-c2cccc3c(C[C@H](NC(=O)C4(F)CCN(CC(F)(F)F)CC4)C(=O)O)cccc23)c1=O [Compound 164] :: > 1 µM
8. COC(=O)[C@H](Cc1cccc2c(-n3c(=O)ccn(C)c3=O)cccc12)NC(=O)c1c(F)cccc1CN1CCOCC1 [Compound 168] :: > 1 µM
9. Cn1ccc(=O)n(-c2cccc3c(C[C@H](NC(=O)C4(C)CCN(C(=O)C(F)F)CC4)C(=O)O)cccc23)c1=O [Compound 55] :: > 1 µM
10. Cc1cc(C(F)(F)F)c(-c2cccc3c(C[C@H](NC(=O)c4c(F)cc(N5CCOC[C@@H]5C(F)(F)F)cc4F)C(=O)O)cccc23)c(=O)n1C [Compound 113] :: 0.1 to 1 µM
11. Cn1ccc(=O)n(-c2cccc3c(C[C@H](NC(=O)C45CCC(C)(CC4)CC5)C(=O)O)cccc23)c1=O [Compound 52] :: > 1 µM
12. Cn1ccc(=O)n(-c2cccc3c(C[C@H](NC(=O)c4c(F)cc(NS(=O)(=O)C(F)(F)F)cc4F)C(=O)O)cccc23)c1=O [Compound 8] :: 0.1 to 1 µM
13. Cn1ccc(=O)n(-c2cccc3c(C[C@H](NC(=O)C4(C)CCC(C)(C)CC4)C(=O)O)cccc23)c1=O [Compound 162] :: > 1 µM
